Test: Toxicity liver stage against HepG2, at 10uM
Format: cell-based
Set-up: test concentration 10 uM, cell line HepG2-A16-CD81EGFP
Settings: human, HepG2-A16-CD81EGFP cells; read-out: INHIBITION
// cytotoxicity at 10 µM lookup, one value per entry
Enter the number, and then the unit.

CSCCC(=O)N1CCN(CC(C)O)CC1 (stereo unspecified)    -5.64%
CC(C)(C)OC(=O)N1CCC(C(=O)NCCNc2ncccn2)CC1    -10.3%
CC1CCN(S(=O)(=O)c2cccn(CC(=O)N3CCOCC3)c2=O)CC1    2.11%
CC(C)c1n[nH]c(C2CN(C(=O)CCCn3cccn3)CCO2)n1 (stereo unspecified)    -7.85%
CC(Cc1ccc(Cl)cc1)N(C)C(=O)NCCS(C)(=O)=O (stereo unspecified)    0.606%
Cn1cc(CCNC(=O)c2cc3ccccc3nc2N2CCCC2)cn1    -1.29%
CSCCc1c(-c2ccccc2)ncn1CC(C)(C)N1CCOCC1    -47.4%
CN(Cc1ccco1)c1ccc(C(=O)NCCCc2ccccn2)cn1    -55.8%

Requested field: cytotoxicity at 10 µM. Item: COc1ccccc1CN(C)C(=O)CN1C(=O)OC[C@@H]1c1ccccc1
-43.6%

Requested field: cytotoxicity at 10 µM. Item: COCCN1CCCC12CCN(C(=O)CC1CCCC1)CC2
5.47%

Requested field: cytotoxicity at 10 µM. Item: CNc1cc(CCNC(=O)c2cccnc2)nc(-c2ccncc2)n1
1.52%

Where do the numbers come from? From ChEMBL document CHEMBL4513216.
